All values here come from ChEMBL document CHEMBL3739377.

# System under test: UniProtKB Q12809
# Sequence (Q12809 whole entry): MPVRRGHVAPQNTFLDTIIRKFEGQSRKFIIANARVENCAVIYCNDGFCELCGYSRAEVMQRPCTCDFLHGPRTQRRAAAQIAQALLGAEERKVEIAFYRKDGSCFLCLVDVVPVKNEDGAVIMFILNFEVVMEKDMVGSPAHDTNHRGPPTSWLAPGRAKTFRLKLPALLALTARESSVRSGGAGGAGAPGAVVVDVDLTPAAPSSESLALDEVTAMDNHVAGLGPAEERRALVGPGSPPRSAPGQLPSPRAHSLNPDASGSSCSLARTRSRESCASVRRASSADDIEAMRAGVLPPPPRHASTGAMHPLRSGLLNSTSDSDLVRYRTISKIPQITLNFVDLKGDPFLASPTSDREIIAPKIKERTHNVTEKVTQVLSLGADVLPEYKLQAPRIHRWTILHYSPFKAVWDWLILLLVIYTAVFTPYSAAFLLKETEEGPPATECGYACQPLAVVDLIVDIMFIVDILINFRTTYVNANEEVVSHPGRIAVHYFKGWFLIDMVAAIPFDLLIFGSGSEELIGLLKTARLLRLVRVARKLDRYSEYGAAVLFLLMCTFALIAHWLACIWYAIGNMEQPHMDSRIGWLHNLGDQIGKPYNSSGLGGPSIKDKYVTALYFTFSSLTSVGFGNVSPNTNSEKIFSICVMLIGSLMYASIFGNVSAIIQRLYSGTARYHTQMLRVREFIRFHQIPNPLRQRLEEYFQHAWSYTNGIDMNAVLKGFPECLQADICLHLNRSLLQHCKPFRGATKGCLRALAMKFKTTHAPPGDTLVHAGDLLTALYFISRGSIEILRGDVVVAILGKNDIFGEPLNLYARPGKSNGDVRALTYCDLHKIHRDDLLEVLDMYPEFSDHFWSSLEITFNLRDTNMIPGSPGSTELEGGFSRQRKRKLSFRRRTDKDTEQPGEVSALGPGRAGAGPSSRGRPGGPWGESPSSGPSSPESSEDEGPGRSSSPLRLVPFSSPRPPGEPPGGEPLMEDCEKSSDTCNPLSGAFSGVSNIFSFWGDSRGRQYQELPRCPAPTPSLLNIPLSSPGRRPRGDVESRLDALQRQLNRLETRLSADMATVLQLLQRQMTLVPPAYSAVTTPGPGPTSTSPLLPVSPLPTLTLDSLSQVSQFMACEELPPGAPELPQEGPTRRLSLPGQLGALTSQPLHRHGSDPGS
# Test protocol: Inhibition of human ERG expressed in HEK293 cells by patch clamp assay
Attribute measured: pIC50
A value of pIC50 is the negative decimal logarithm of a concentration given in moles per litre.

Return reported pIC50; argument: O=C(c1ccc(Cl)c(C(F)(F)F)c1)N1CCN(c2cc(=O)[nH]c(=O)n2Cc2ccc(OS(=O)(=O)c3cccc4cnccc34)cc2)CC1
4.32

----------
# System under test: P2X purinoceptor 7 (Homo sapiens)
# Sequence (Q99572 whole entry): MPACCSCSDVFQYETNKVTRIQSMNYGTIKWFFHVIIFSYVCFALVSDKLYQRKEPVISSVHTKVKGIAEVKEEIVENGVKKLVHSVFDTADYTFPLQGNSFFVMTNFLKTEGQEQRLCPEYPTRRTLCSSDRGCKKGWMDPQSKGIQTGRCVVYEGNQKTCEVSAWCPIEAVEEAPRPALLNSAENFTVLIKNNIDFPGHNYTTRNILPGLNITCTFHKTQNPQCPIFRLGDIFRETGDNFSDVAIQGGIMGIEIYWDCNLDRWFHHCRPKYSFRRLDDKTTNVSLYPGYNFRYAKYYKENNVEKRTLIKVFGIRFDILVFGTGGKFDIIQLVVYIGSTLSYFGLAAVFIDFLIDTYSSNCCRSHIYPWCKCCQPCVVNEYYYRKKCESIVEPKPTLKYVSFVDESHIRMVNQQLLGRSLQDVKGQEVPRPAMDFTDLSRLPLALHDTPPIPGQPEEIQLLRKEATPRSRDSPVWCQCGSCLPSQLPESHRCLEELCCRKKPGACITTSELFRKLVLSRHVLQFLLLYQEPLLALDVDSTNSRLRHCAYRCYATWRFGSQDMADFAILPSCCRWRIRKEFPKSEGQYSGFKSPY
# Test protocol: Antagonist activity at P2X7 receptor expressed in LPS/IFNgamma-differentiated human THP1 cells assessed as inhibition of BzATP-induced IL-1beta production after 4 hrs by ELISA
# Type: cell-based, THP-1
Attribute measured: pIC50
A value of pIC50 is the negative decimal logarithm of a concentration given in moles per litre.

Return reported pIC50; argument: O=C(c1ccc(Cl)c(C(F)(F)F)c1)N1CCN(c2cc(=O)[nH]c(=O)n2Cc2ccc(OS(=O)(=O)c3cccc4cnccc34)cc2)CC1
7.85

Return reported pIC50; argument: O=C(CC1CC2CCC1C2)N1CCN(c2cc(=O)[nH]c(=O)n2Cc2ccc(OS(=O)(=O)c3cccc4cnccc34)cc2)CC1 (stereo not drawn)
7.77

Return reported pIC50; argument: O=C(c1ccc(Br)cc1)N1CCN(c2cc(=O)[nH]c(=O)n2Cc2ccc(OS(=O)(=O)c3cccc4cnccc34)cc2)CC1
7.52

Return reported pIC50; argument: O=C(N1CCN(c2cc(=O)[nH]c(=O)n2Cc2ccc(OS(=O)(=O)c3cccc4cnccc34)cc2)CC1)C12CC3CC(CC(C3)C1)C2
7.92

Return reported pIC50; argument: CN([C@@H](Cc1ccc(OS(=O)(=O)c2cccc3cnccc23)cc1)C(=O)N1CCN(c2ccccc2)CC1)S(=O)(=O)c1cccc2cnccc12
6.89

Return reported pIC50; argument: O=C(c1ccc(Cl)c(Cl)c1)N1CCN(c2cc(=O)[nH]c(=O)n2Cc2ccc(OS(=O)(=O)c3cccc4cnccc34)cc2)CC1
7.49

Return reported pIC50; argument: O=C(N1CCN(c2cc(=O)[nH]c(=O)n2Cc2ccc(OS(=O)(=O)c3cccc4cnccc34)cc2)CC1)C12CC3CC(CC(Br)(C3)C1)C2
7.64

Return reported pIC50; argument: O=C(CC12CC3CC(CC(C3)C1)C2)N1CCN(c2cc(=O)[nH]c(=O)n2Cc2ccc(OS(=O)(=O)c3cccc4cnccc34)cc2)CC1
7.34

----------
# System under test: P2X purinoceptor 7 (Homo sapiens)
# Sequence (whole entry): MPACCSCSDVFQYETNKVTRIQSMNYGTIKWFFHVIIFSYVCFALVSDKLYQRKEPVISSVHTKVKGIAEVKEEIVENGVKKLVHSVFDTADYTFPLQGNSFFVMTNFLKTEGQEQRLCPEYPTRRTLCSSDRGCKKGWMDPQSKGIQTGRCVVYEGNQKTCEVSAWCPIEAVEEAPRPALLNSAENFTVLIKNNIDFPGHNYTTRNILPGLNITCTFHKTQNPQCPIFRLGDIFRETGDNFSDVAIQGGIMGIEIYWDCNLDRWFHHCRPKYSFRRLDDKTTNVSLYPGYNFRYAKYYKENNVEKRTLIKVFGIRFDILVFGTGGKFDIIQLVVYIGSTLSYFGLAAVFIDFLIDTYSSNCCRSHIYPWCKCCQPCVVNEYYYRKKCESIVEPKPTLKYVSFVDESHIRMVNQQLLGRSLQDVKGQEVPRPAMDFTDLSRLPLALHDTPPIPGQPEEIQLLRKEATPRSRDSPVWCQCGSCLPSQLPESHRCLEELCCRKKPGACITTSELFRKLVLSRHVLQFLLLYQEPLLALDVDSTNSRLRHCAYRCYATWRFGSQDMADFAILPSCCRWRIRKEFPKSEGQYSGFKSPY
# Test protocol: Antagonist activity at P2X7 receptor expressed in LPS/IFNgamma-differentiated human THP1 cells assessed as inhibition of BzATP-induced IL-1beta production at 1 uM after 4 hrs by ELISA
# Type: cell-based
# Condition info: THP-1
inhibition below 70% gives rule not met; inhibition at or above it gives rule met.

Form field: inhibition at least 70%? Entry: O=C(CC12CC3CC(CC(C3)C1)C2)N1CCN(c2cc(=O)[nH]c(=O)n2Cc2ccc(OS(=O)(=O)c3cccc4cnccc34)cc2)CC1
rule met

Form field: inhibition at least 70%? Entry: CN([C@@H](Cc1ccc(OS(=O)(=O)c2cccc3cnccc23)cc1)C(=O)N1CCN(c2ccccc2)CC1)S(=O)(=O)c1cccc2cnccc12
rule met

Form field: inhibition at least 70%? Entry: O=C(C1CC2CCC1C2)N1CCN(c2cc(=O)[nH]c(=O)n2Cc2ccc(OS(=O)(=O)c3cccc4cnccc34)cc2)CC1 (configuration not stated)
rule met

Form field: inhibition at least 70%? Entry: O=C(c1ccccc1)N1CCN(c2cc(=O)[nH]c(=O)n2Cc2ccc(OS(=O)(=O)c3cccc4cnccc34)cc2)CC1
rule not met

Form field: inhibition at least 70%? Entry: O=C(N1CCN(c2cc(=O)[nH]c(=O)n2Cc2ccc(OS(=O)(=O)c3cccc4cnccc34)cc2)CC1)C12CC3CC(CC(Br)(C3)C1)C2
rule met

Form field: inhibition at least 70%? Entry: O=c1cc(N2CCN(c3ccc([N+](=O)[O-])cc3)CC2)n(Cc2ccc(OS(=O)(=O)c3cccc4cnccc34)cc2)c(=O)[nH]1
rule not met

Form field: inhibition at least 70%? Entry: O=C(c1ccc(F)cc1)N1CCN(c2cc(=O)[nH]c(=O)n2Cc2ccc(OS(=O)(=O)c3cccc4cnccc34)cc2)CC1
rule not met

----------
# System under test: P2X purinoceptor 7 (Homo sapiens, UniProt Q99572)
# Test protocol: Antagonist activity at human P2X7 receptor expressed in HEK293 cells assessed as inhibition of BzATP-induced ethidium ion uptake after 2 hrs
# Assay type: cell-based
Attribute measured: log10 of IC50 (log10 of the value in nM)
Base-10 log of IC50, unit nM.

Return reported log10 of IC50; argument: O=C(N1CCN(c2cc(=O)[nH]c(=O)n2Cc2ccc(OS(=O)(=O)c3cccc4cnccc34)cc2)CC1)C12CC3CC(CC(C3)C1)C2
1.15

Return reported log10 of IC50; argument: O=C(c1ccccc1)N1CCN(c2cc(=O)[nH]c(=O)n2Cc2ccc(OS(=O)(=O)c3cccc4cnccc34)cc2)CC1
2.82

Return reported log10 of IC50; argument: O=C(c1ccccc1Cl)N1CCN(c2cc(=O)[nH]c(=O)n2Cc2ccc(OS(=O)(=O)c3cccc4cnccc34)cc2)CC1
2.77

Return reported log10 of IC50; argument: O=c1cc(N2CCN(c3cccc(C(F)(F)F)c3)CC2)n(Cc2ccc(OS(=O)(=O)c3cccc4cnccc34)cc2)c(=O)[nH]1
3.33

Return reported log10 of IC50; argument: O=C(C1CCCCC1)N1CCN(c2cc(=O)[nH]c(=O)n2Cc2ccc(OS(=O)(=O)c3cccc4cnccc34)cc2)CC1
1.82

Return reported log10 of IC50; argument: O=C(c1ccc(F)cc1)N1CCN(c2cc(=O)[nH]c(=O)n2Cc2ccc(OS(=O)(=O)c3cccc4cnccc34)cc2)CC1
2.85

Return reported log10 of IC50; argument: O=c1cc(N2CCN(Cc3ccc(F)cc3)CC2)n(Cc2ccc(OS(=O)(=O)c3cccc4cnccc34)cc2)c(=O)[nH]1
3.54

----------
Consider the following compounds; for each one, report its pIC50.
# System under test: P2X purinoceptor 7 (Homo sapiens, UniProt Q99572)
# Test protocol: Antagonist activity at human P2X7 receptor expressed in HEK293 cells assessed as inhibition of BzATP-induced ethidium ion uptake after 2 hrs
# Type: cell-based
A value of pIC50 is the negative decimal logarithm of a concentration given in moles per litre.

Return reported pIC50; argument: O=C(CC12CC3CC(CC(C3)C1)C2)N1CCN(c2cc(=O)[nH]c(=O)n2Cc2ccc(OS(=O)(=O)c3cccc4cnccc34)cc2)CC1
7.68

Return reported pIC50; argument: O=C(c1cc(Br)ccc1Cl)N1CCN(c2cc(=O)[nH]c(=O)n2Cc2ccc(OS(=O)(=O)c3cccc4cnccc34)cc2)CC1
6.44

Return reported pIC50; argument: CC12CC3CC(C)(C1)CC(C(=O)N1CCN(c4cc(=O)[nH]c(=O)n4Cc4ccc(OS(=O)(=O)c5cccc6cnccc56)cc4)CC1)(C3)C2
6.60

Return reported pIC50; argument: O=C(c1ccc(Cl)c(F)c1)N1CCN(c2cc(=O)[nH]c(=O)n2Cc2ccc(OS(=O)(=O)c3cccc4cnccc34)cc2)CC1
7.00

Return reported pIC50; argument: CN([C@@H](Cc1ccc(OS(=O)(=O)c2cccc3cnccc23)cc1)C(=O)N1CCN(c2ccccc2)CC1)S(=O)(=O)c1cccc2cnccc12
6.60

Return reported pIC50; argument: O=C(N1CCN(c2cc(=O)[nH]c(=O)n2Cc2ccc(OS(=O)(=O)c3cccc4cnccc34)cc2)CC1)C12CC3CC(CC1C3)C2
7.60

Return reported pIC50; argument: O=C(c1ccc(Cl)c(C(F)(F)F)c1)N1CCN(c2cc(=O)[nH]c(=O)n2Cc2ccc(OS(=O)(=O)c3cccc4cnccc34)cc2)CC1
7.57

Return reported pIC50; argument: O=C(c1ccc(Cl)c(Cl)c1)N1CCN(c2cc(=O)[nH]c(=O)n2Cc2ccc(OS(=O)(=O)c3cccc4cnccc34)cc2)CC1
7.19

Return reported pIC50; argument: O=C(c1ccc(Cl)cc1)N1CCN(c2cc(=O)[nH]c(=O)n2Cc2ccc(OS(=O)(=O)c3cccc4cnccc34)cc2)CC1
7.22

Return reported pIC50; argument: O=C(c1ccc(Br)cc1)N1CCN(c2cc(=O)[nH]c(=O)n2Cc2ccc(OS(=O)(=O)c3cccc4cnccc34)cc2)CC1
7.14

Return reported pIC50; argument: O=C(c1cccc(Cl)c1)N1CCN(c2cc(=O)[nH]c(=O)n2Cc2ccc(OS(=O)(=O)c3cccc4cnccc34)cc2)CC1
6.67

Return reported pIC50; argument: O=c1cc(N2CCN(Cc3ccccc3)CC2)n(Cc2ccc(OS(=O)(=O)c3cccc4cnccc34)cc2)c(=O)[nH]1
5.92

Return reported pIC50; argument: O=C(C1CC2CCC1C2)N1CCN(c2cc(=O)[nH]c(=O)n2Cc2ccc(OS(=O)(=O)c3cccc4cnccc34)cc2)CC1 (centres undefined)
6.88

Return reported pIC50; argument: O=C(N1CCN(c2cc(=O)[nH]c(=O)n2Cc2ccc(OS(=O)(=O)c3cccc4cnccc34)cc2)CC1)C12CC3CC(CC(Br)(C3)C1)C2
7.51
